- STUDY_SYSTEM: Metabotropic glutamate receptor 7 (Rattus norvegicus, UniProt P35400)
- Sequence (P35400 whole entry): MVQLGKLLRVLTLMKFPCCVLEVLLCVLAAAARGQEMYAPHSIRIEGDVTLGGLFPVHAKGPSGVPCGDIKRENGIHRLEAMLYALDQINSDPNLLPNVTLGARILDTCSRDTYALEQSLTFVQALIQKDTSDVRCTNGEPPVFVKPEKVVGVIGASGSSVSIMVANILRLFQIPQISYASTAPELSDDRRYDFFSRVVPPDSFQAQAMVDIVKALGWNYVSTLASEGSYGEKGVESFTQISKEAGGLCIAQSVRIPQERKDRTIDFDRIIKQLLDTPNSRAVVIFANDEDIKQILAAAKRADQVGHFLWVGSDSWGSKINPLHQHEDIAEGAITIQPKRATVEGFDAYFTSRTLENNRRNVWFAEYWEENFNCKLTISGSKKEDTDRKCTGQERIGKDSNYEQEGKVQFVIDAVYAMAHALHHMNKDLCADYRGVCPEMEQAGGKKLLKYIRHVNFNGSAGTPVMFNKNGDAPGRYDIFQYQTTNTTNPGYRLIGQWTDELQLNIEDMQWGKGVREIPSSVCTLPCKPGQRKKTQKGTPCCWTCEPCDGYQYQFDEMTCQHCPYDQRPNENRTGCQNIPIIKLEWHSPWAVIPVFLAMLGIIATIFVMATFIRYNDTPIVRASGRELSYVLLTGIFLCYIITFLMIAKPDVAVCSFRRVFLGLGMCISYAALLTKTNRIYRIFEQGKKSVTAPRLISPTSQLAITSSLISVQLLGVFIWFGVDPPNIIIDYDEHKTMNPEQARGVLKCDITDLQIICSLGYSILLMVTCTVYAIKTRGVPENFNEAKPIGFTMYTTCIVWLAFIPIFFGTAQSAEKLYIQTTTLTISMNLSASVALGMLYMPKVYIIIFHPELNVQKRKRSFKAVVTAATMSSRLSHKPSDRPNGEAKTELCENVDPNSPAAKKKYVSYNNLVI
- ASSAY_COMMENT: Negative allosteric modulation of rat mGlu7 receptor expressed in HEK cells harboring Ga15 assessed as reduction in L-AP4-induced calcium flux preincubated for 142 secs followed by agonist addition and measured after 120 secs by Fluo-4-AM-dye based fluorescence assay
MEASUREMENT_LABEL: log10(IC50) (log10 of the value in nM)
Record value = log10 of IC50 given in nM.

Entry `COc1cc(F)c(CCCNc2cc(OC(F)(F)F)ccc2-n2cncn2)cc1OC` has what log10(IC50)?
3.11

Entry `COc1ccc(CCCNc2cc(OC(F)(F)F)ccc2-n2cncn2)cc1OC` has what log10(IC50)?
3.20

Entry `COc1cc(C(=O)Nc2cc(OC(F)(F)F)ccc2-n2cncn2)ccc1OCC1CCCC1` has what log10(IC50)?
3.45

Entry `COc1ccc(CNc2cc(OC(F)(F)F)ccc2-n2cncn2)cc1OC` has what log10(IC50)?
3.77

Entry `COc1cc(C(=O)Nc2cc(OC(F)(F)F)ccc2-n2cncn2)ccc1OCc1ccccc1` has what log10(IC50)?
3.49

Entry `COc1ccc(CNc2cc(Cl)ccc2-n2cncn2)cc1OC` has what log10(IC50)?
3.90

Entry `COc1cc(C(=O)Nc2cc(OC(F)(F)F)ccc2-n2cncn2)ccc1OCC1CCC1` has what log10(IC50)?
3.15

Entry `COc1cc(C(=O)Nc2cc(OC(F)(F)F)ccc2-n2cncn2)ccc1OCC(C)C` has what log10(IC50)?
3.08

Entry `COc1cc(C(=O)Nc2cc(OC(F)(F)F)ccc2-n2cncn2)ccc1OCC1CC1` has what log10(IC50)?
2.54

Entry `COc1cc(F)c(OCCNc2cc(OC(F)(F)F)ccc2-n2cncn2)cc1OC` has what log10(IC50)?
3.08

###

- ASSAY_COMMENT: Fraction unbound in Sprague-Dawley rat brain at 0.2 to 0.25 mg/kg, iv via cassette dosing measured up to 24 hrs post dose by LC/MS/MS analysis
- Type: ADME, organism-based
MEASUREMENT_LABEL: fraction unbound at 24 h
Just the number, please, no unit after it.

Entry `COc1cc(C(=O)Nc2cc(OC(F)(F)F)ccc2-n2cncn2)ccc1OCC1CC1` has what fraction unbound at 24 h?
0.009

###

- STUDY_SYSTEM: Metabotropic glutamate receptor 2 (Homo sapiens, UniProt Q14416)
- Sequence (Q14416 whole entry): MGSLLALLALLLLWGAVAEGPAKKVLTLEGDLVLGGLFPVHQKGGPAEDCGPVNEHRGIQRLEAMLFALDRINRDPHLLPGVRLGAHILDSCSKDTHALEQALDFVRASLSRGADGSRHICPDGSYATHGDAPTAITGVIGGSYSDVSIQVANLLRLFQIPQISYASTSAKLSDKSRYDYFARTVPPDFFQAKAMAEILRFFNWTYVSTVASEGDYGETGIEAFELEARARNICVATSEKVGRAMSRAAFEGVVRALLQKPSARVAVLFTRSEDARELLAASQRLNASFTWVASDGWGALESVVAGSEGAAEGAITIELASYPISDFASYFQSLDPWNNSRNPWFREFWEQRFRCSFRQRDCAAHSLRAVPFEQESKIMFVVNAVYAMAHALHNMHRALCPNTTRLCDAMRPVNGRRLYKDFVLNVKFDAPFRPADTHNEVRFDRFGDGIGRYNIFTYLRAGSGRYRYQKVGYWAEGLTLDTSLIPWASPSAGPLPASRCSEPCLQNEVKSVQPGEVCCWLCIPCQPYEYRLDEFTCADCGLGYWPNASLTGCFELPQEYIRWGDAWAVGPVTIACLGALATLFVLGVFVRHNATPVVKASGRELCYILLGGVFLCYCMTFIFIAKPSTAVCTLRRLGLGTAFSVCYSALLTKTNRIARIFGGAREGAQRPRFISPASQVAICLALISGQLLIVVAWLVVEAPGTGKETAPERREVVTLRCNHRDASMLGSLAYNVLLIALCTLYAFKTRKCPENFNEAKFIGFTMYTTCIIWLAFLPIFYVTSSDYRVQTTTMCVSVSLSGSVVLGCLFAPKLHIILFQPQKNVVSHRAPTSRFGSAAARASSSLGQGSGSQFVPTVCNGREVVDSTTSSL
- ASSAY_COMMENT: Negative allosteric modulation of mGlu2 receptor (unknown origin)
MEASUREMENT_LABEL: IC50

Provide the documented IC50 with Metabotropic glutamate receptor 2 (Homo sapiens, UniProt Q14416) as the system for `COc1cc(C(=O)Nc2cc(OC(F)(F)F)ccc2-n2cncn2)ccc1OCC1CC1`
> 10 µM

###

- ASSAY_COMMENT: Total brain concentration in Sprague-Dawley rat at 30 mg/kg, ip measured at 1 hr post dose by LC/MS/MS analysis
- Format: ADME, organism-based
- TEST_PARAMETERS: read-out: Drug uptake
MEASUREMENT_LABEL: concentration at 1 h (nM)
Dear colleague, please return just the value in nM, with no unit written.

Entry `COc1cc(C(=O)Nc2cc(OC(F)(F)F)ccc2-n2cncn2)ccc1OCC1CC1` has what concentration at 1 h?
745

###

- ASSAY_COMMENT: Drug level in Sprague-Dawley rat cerebrospinal fluid at 30 mg/kg, ip measured at 1 hr post dose by LC/MS/MS analysis
- Type: ADME, organism-based
- TEST_PARAMETERS: read-out: Drug uptake
MEASUREMENT_LABEL: concentration at 1 h (nM)
Dear colleague, please return just the value in nM, with no unit written.

Entry `COc1cc(C(=O)Nc2cc(OC(F)(F)F)ccc2-n2cncn2)ccc1OCC1CC1` has what concentration at 1 h?
1300
